- TEST METHOD NOTES: NCI Yeast Anticancer Drug Screen. Data for the mgt1 strain (AID 153)
- TEST SETTINGS: S. cerevisiae mgt1 mutant growth inhibition; at 33.0 µM
This is part of a sample that, as a whole, favours compounds with a hit. Of some 79,000 tested, about 15% had one in any assay. The source made the active and inactive calls. Rule as the data show it: active = growth inhibition above about 70%; inactive = the rest. Residues, ends and D or L forms follow the SMILES beside them. *: point of attachment. CH2Cl = ClC*
Parameter call: string, one of true (1) = active, false (0) = inactive

What outcome does the record of this test show for CC1=CCC(C(C)(C)c2ccc(O)cc2)CC1 (stereo not given) ?
true (1)

What outcome does the record of this test show for `CSc1s[s+]c(SC)c1-c1ccccc1` ?
false (0)

What outcome does the record of this test show for CC(=O)[C@]1(O)Cc2c(O)c3c(c(O)c2[C@@H](OC2CC(N)C(O)C(C)O2)C1)C(=O)c1c(OCc2ccccc2)cccc1C3=O (stereo not given in full) ?
false (0)

What outcome does the record of this test show for `NCc1c(O)ccc2ccccc12` ?
true (1)

What outcome does the record of this test show for `O=C1c2ccccc2CCC1(Br)Br` ?
true (1)

What outcome does the record of this test show for `COc1ccc(C(C#N)=C2C=CC(=NO)C=C2)cc1` ?
true (1)

What outcome does the record of this test show for `CC(=O)[O-].O=C([CH-]C(=O)c1ccccc1)c1ccccc1.O=C([CH-]C(=O)c1ccccc1)c1ccccc1.[Sm+3]` ?
true (1)

What outcome does the record of this test show for `S=c1[nH]c2c(Cl)c(Cl)c(Cl)c(Cl)c2[nH]1` ?
true (1)

What outcome does the record of this test show for `CCCCOC(=O)CSSCC(=O)OCCCC` ?
true (1)

What outcome does the record of this test show for CC(=O)NC(CC(C)C)C(=O)NC(Cc1ccccc1)C(=O)CCl (stereo not drawn) (Ac-Leu-Phe-CH2Cl; configuration not given here) ?
false (0)

What outcome does the record of this test show for COc1cc([C@@H]2c3cc4c(cc3[C@@H](OC3OC5COC(C)OC5C(O)C3O)[C@H]3COC(=O)[C@H]23)OCO4)cc(OC)c1O (stereo not given in full) ?
false (0)

What outcome does the record of this test show for Nc1nc(F)nc2c1ncn2C1OC(COP(=O)(O)O)C(O)C1O (stereo not given) ?
false (0)

What outcome does the record of this test show for `CN(CC(=O)O)c1ccc(/C=C/c2ccnc3ccccc23)cc1` ?
false (0)

What outcome does the record of this test show for `ClCCn1c(CCl)nc2ccc(Cl)cc21` ?
true (1)

What outcome does the record of this test show for `[Pt].c1ccc(P(CCP(c2ccccc2)c2ccccc2)CCP(c2ccccc2)c2ccccc2)cc1` ?
true (1)

What outcome does the record of this test show for `CCN(CC)CCNC(=O)c1nn(-c2ccc(Cl)cc2)c2c1CCc1cc(OC)ccc1-2` ?
false (0)

What outcome does the record of this test show for O=C1C(Cl)=C(Cl)C(Cl)(Cl)C(Cl)C1(Cl)Cl (stereo not given) ?
true (1)

What outcome does the record of this test show for `Cc1cc(O)c2c(c1)C(=O)C=C(Br)C2=O` ?
true (1)

What outcome does the record of this test show for `CCC(C)(c1ccc(O)c(C)c1)c1ccc(O)c(C)c1` ?
true (1)

What outcome does the record of this test show for `Cc1ccc(Nc2n[nH]c(=S)s2)cc1` ?
false (0)

What outcome does the record of this test show for `O=C(/C=C/c1cccc(Br)c1)c1ccc(Cl)cc1` ?
false (0)

What outcome does the record of this test show for `COc1ccc(N)c2c1C(=O)c1ccccc1C2=O` ?
false (0)

What outcome does the record of this test show for `NC(N)=N/N=C/c1cc(Cl)cc(Cl)c1O` ?
true (1)

What outcome does the record of this test show for `O=C1c2cccc3cc([N+](=O)[O-])cc(c23)C(=O)N1CCN1CCCC1` ?
false (0)

What outcome does the record of this test show for `Cc1cc(Cl)ccc1NC(=O)/C(Cl)=C1/Sc2ccccc2NC1=O` ?
false (0)

What outcome does the record of this test show for `NNC(=S)Nc1cccc2ccccc12` ?
false (0)

What outcome does the record of this test show for `N#CC(=C1C=CC(=NO)C=C1)c1ccccc1` ?
true (1)

What outcome does the record of this test show for `O=C1c2c(O)cccc2-c2nn(CCNCCO)c3ccc(NCCNCCO)c1c23` ?
false (0)

What outcome does the record of this test show for `Cc1ccc(I)cc1N=C=S` ?
true (1)

What outcome does the record of this test show for `COC(=O)/C=C1/OC(c2ccc(Br)cc2)=C(Br)C1=O` ?
false (0)

What outcome does the record of this test show for `CCCCCC(=O)c1ccc(O)cc1O` ?
true (1)

What outcome does the record of this test show for `O=C(/C=N/O)Nc1cc(Cl)c(Cl)cc1Cl` ?
false (0)

What outcome does the record of this test show for `Cn1ncc2cc3c(Nc4ccc(Cl)cc4)cccc3nc21` ?
false (0)

What outcome does the record of this test show for CC1CCC2(C(=O)O)CCC3(C)C(=CCC4C5(C)CC(O)C(O)C(C)(CO)C5C(O)CC43C)C2C1C (stereo not given) ?
false (0)

What outcome does the record of this test show for `C=C1N(C)c2ccc(Cl)cc2C1(C)C` ?
false (0)
